# IC50 per record follows
target: HDAC1 (Homo sapiens, UniProt Q13547); assay: HDAC biochemical activity measurement (fluorescent substrate deacetylation);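 further: fluorogenic acetyl-lysine substrate (20 µM) deacetylated by HDAC1, then developer releases fluorophore read at 360 nm excitation and 460 nm emission, inhibitor incubated 30 min at 37 °C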; conditions: HDAC1; 37° C. 30 minutes; read-out: IC50 HDAC1
Sequence (Q13547 whole entry, species assumed): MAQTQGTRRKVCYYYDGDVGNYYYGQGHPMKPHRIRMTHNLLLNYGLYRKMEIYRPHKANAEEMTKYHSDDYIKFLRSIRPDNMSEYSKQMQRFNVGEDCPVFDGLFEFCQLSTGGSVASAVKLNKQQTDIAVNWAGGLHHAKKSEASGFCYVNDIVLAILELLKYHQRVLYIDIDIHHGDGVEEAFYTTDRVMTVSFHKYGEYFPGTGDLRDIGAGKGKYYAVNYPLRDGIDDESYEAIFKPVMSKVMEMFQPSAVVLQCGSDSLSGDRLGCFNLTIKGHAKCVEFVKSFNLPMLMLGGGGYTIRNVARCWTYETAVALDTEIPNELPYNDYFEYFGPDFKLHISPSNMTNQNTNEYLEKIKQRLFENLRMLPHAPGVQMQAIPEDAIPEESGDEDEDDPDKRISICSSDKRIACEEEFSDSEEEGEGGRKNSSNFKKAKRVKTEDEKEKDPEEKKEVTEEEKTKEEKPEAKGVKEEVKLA

# Compound, IC50 (nM)
measured = [
    ("C/C=C1\\NC(=O)c2cccc(n2)CNC(=O)C[C@@H](/C=C/CCSC(C)=O)OC(=O)[C@H](C)NC1=O [Compound 12]", 81),
    ("C/C=C1\\NC(=O)c2cc(F)cc(n2)CNC(=O)C[C@@H](/C=C/CCSC(C)=O)OC(=O)[C@H](Cc2cccc3ccccc23)NC1=O [Example 79]", 57),
    ("C/C=C1\\NC(=O)c2cccc(n2)CNC(=O)C[C@@H](/C=C/CCSC(C)=O)OC(=O)[C@H](CC)NC1=O [Compound 10]", 92),
    ("C/C=C1\\NC(=O)c2cccc(n2)CCNC(=O)C[C@@H](/C=C/CCS)OC(=O)[C@H](C(C)C)NC1=O [Compound 146]", 73),
]
